target.or.test.system: GST-p53 DNA binding domain (aa 92-aa 312) (Homo sapiens, UniProt P04637)
Sequence (P04637 92-312): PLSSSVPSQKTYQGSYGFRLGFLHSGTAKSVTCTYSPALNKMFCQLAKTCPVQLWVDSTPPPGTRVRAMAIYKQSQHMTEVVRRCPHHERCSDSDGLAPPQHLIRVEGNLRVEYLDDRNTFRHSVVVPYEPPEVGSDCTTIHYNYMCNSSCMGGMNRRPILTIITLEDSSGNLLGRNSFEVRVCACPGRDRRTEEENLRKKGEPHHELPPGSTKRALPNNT
assay.overview: Scintillation Proximity Assay (SPA), displacement of 3H STANDARD COMPOUND
protocol.conditions: 1 h, 2 ug/mL of drug; exact values; number in brackets = number of determinations averaged; read-out: SPA ASSAY % Residual T @ 2 ug/mL of drug (Average of)
property.label: remaining activity at 2 µg/mL (%)
Numbers only, in %.

A selection of reference data follows.
input: Specify measured remaining activity at 2 µg/mL for CN(C)CCCNc1nc(CN(C)C2CCC(C#N)(c3ccccc3)CC2)nc2ccccc12 (stereo not shown) .
output: 5.5

input: Indicate the recorded remaining activity at 2 µg/mL value for this compound: CN(C)CCCNc1nc(CN(C)C2CCN(C(=O)c3ccccc3)CC2)nc2ccccc12
output: 20.7

input: Entry CN(C)CCCNc1nc(CN(C)C2CCC3CCCCC3C2)nc2ccccc12 (stereo not shown) needs its remaining activity at 2 µg/mL filled in; supply it.
output: 28.7

input: Output measured remaining activity at 2 µg/mL for this item: CCC(C)(C)C1CCC(N(C)Cc2nc(NCCCN(C)C)c3ccccc3n2)CC1 (stereo not shown)
output: 6.3

input: Quote remaining activity at 2 µg/mL reported for CN(C)CCCNc1nc(CN(C)C2CCC3(CC2)OCCO3)nc2ccccc12 please.
output: 23

input: Let me know recorded remaining activity at 2 µg/mL for CN(C)CCCNc1nc(CN(C)C2CCC(c3ccccc3)CC2)nc2ccccc12 (stereo not shown) , thanks.
output: 21

input: Given CN(C)CCCNc1nc(CN(C)Cc2ccccc2)nc2ccccc12 , respond with its remaining activity at 2 µg/mL.
output: 22.2

input: Provide measured remaining activity at 2 µg/mL value, entry: COc1ccc(/C=C/c2nc(NCCCN(C)C)c3ccccc3n2)cc1 [CP-31398, reference compound]
output: 61.3

Would you mind listing remaining activity at 2 µg/mL for each of the following compounds?
1. Cc1c(CN(C)Cc2nc(NCCCN(C)C)c3ccccc3n2)sc2ccccc12
2. CC(C)C1CCC(N(C)Cc2nc(NCCCN(C)C)c3ccccc3n2)CC1 (stereo not shown)

output:
1. 23.6
2. 13.5

Batch of 3 compounds: report remaining activity at 2 µg/mL for each.
1. CN(C)CCCNc1nc(CN(C)C2CCC(C(C)(C)C)CC2)nc2ccccc12 (stereo not shown)
2. CN(C)CCCNc1nc(CN(C)Cc2cccc3cc[nH]c23)nc2ccccc12
3. CN(Cc1ccccc1)Cc1nc2ccccc2c(=O)[nH]1

output:
7.8
25.7
36.8

* * *

target.or.test.system: GST-p53 DNA binding domain (aa 92-aa 312) (Homo sapiens, UniProt P04637)
assay.overview: Scintillation Proximity Assay (SPA), displacement of 3H STANDARD COMPOUND
protocol.conditions: 1 h, 2 ug/mL of drug; letter rating; number in brackets = number of determinations averaged; read-out: SPA ASSAY % Residual T @ 2 ug/mL of drug (Average of)
property.label: remaining activity at 2 µg/mL

input: Give the measured remaining activity at 2 µg/mL for CN(C)CCCNc1nc(CN(C)C2CCC(C(C)(C)C)CC2)nc2ccccc12 (stereo not shown) [38-84]
output: 0 to 20%

input: Kindly indicate its recorded remaining activity at 2 µg/mL. Item: CN(C)CCCNc1nc(CN(C)C/C=C/c2ccccc2)nc2ccccc12 [38-21]
output: ≥ 80%

Take each entry in turn and give its remaining activity at 2 µg/mL.
1. CCC(C)CN(C)Cc1nc(NCCCN(C)C)c2ccccc2n1 (stereo not shown) [38-2]
2. CC(=O)N1CCC(N(C)Cc2nc(NCCCN(C)C)c3ccccc3n2)CC1 [38-82]
3. CN(C)CCCNc1nc(CN(C)Cc2ccccc2Sc2ccc(Cl)cc2)nc2ccccc12 [38-67]
4. CN(C)CCCNc1nc(CN(C)C2CCSC2)nc2ccccc12 (stereo not shown) [38-74]
5. CN(C)CCCNc1nc(CN(C)C2CCC3CCCCC3C2)nc2ccccc12 (stereo not shown) [38-83]

output:
1: 40 to 80%; 2: 40 to 80%; 3: 40 to 80%; 4: 40 to 80%; 5: 20 to 40%

For each of the compounds below, state remaining activity at 2 µg/mL.
1. CN(C)CCCNc1nc(CN(C)C2CCCCC2)nc2ccccc12 [38-72]
2. CN(C)CCCNc1nc(CN(C)C2C[C@@H]3CC[C@H]2C3)nc2ccccc12 (stereo partly shown) [38-75]
3. CC(C)C1CCC(N(C)Cc2nc(NCCCN(C)C)c3ccccc3n2)CC1 (stereo not shown) [38-81]

output:
1. 40 to 80%
2. ≥ 80%
3. 0 to 20%
